- ASSAY_REMARKS: self-splicing fitness, log relative to wild type (ln ratio); higher = more splicing; Tetrahymena group I intron in knt gene, E. coli kanamycin selection, DiMSum; sequences stand for … in CUCUCU…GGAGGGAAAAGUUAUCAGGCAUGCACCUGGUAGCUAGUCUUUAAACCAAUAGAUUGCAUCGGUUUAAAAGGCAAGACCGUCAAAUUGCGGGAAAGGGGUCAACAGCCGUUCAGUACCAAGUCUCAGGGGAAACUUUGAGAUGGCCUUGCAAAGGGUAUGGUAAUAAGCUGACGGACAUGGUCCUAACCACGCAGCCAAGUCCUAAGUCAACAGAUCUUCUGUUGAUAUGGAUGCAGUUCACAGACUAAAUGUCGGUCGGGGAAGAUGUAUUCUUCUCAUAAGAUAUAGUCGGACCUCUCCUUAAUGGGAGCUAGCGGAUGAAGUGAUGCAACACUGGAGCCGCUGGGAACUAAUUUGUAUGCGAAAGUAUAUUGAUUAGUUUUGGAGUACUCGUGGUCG;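 also: selection with 25 µg/mL kanamycin versus none on LB agar overnight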
- ASSAY_SETUP: 30 °C
METRIC: self-splicing fitness (ln)
Field format: numeric only.

Record excerpt, results attached:
[in] Could you tell me which self-splicing fitness (ln) is on file for `GUAAAGCAAUAUUACGAGCC` ?
[out] -2.51

[in] What would you report for `CAAGAGCAAUAUUACGGGAA` ?
[out] -2.06

[in] What would you report for `AGGGAGCAAUAUUACGUGUG` ?
[out] -2.78

[in] What would you report for `GUUCAGCAAUAUUACGAGGG` ?
[out] -2.72

[in] What would you report for `CAUCAGCAAUAUUACGAAGC` ?
[out] -3.23

[in] What would you report for `UCGUAGCAAUAUUACGAUUG` ?
[out] -2.6

New cases:
[in] Could you tell me which self-splicing fitness (ln) is on file for `UUUAAGCAAUAUUACGUCUU` ?
[out] -2.57

[in] What would you report for `CCUGAGCAAUAUUACGGGUC` ?
[out] -2.95

---

- ASSAY_REMARKS: self-splicing fitness, log relative to wild type (ln ratio); higher = more splicing; Tetrahymena group I intron in knt gene, E. coli kanamycin selection, DiMSum; sequences stand for … in CUCUCU…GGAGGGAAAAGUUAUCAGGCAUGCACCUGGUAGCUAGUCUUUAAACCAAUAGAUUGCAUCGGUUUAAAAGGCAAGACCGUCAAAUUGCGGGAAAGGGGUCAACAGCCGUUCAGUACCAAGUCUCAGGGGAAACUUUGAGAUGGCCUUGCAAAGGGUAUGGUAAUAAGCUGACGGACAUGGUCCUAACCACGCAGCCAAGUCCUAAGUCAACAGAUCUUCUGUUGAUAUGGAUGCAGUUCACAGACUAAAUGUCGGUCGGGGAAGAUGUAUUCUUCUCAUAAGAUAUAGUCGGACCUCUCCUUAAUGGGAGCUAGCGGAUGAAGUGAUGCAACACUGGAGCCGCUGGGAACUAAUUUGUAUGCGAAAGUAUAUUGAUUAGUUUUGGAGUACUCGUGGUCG
- ASSAY_SETUP: 30 °C
Threshold check on self-splicing fitness (ln): at or above -2 gives Yes, strictly below gives No.

The examples below pair each entry with its known result.
[in] Hi, just wondering whether `GUAGAGCAAUAUUACGCAAG` shows self-splicing fitness (ln) of -2 or higher.
[out] Yes

[in] What would you report for `CUCAAGCAAUAUUACGGCAC` ?
[out] No

[in] What would you report for `GGGAAGCAAUAUUACGGUCU` ?
[out] Yes

[in] What would you report for `CUGCAGCAAUAUUACGCGGU` ?
[out] No

[in] What would you report for `CGAUAGCAAUAUUACGGCGU` ?
[out] Yes

[in] What would you report for `GGACAGCAAUAUUACGUUGG` ?
[out] Yes

New cases:
[in] Hi, just wondering whether `UCGAAGCAAUAUUACGGGAC` shows self-splicing fitness (ln) of -2 or higher.
[out] No

[in] What would you report for `CUGCAGCAAUAUUACGUGUC` ?
[out] No

[in] What would you report for `ACCAAGCAAUAUUACGGCGG` ?
[out] Yes

Each recorded value in this set is attributed to the supplement of paper PMC7877785.
